EXPERIMENT_DESCRIPTION: Stability of CNP variants by RP-HPLC, 10 days in PBS
Type: physicochemical
RECORDED_CONDITIONS: T0 (0 days)
READOUT: T0, % (% variant detected at T0) (%)

PGQEHPNARKYKGANKKGLSKGCFGLKLDRIGSMSGLGC [CNP-5] ... 83
PGQEHPNARRYRGANRRGLSRGCFGLKLDRIGSMSGLGC [CNP-7] ... 77
PGQEHPNARRYRGANRRGLSRGCFGLKLDRIGSMSGLGC [CNP-6] ... 90
PGQEHPQARRYRGAQRRGLSRGCFGLKLDRIGSMSGLGC [CNP-8] ... 91
PGQEHPQARRYRGAQRRGLSRGCFGLKLDRIGSMSGLGC [CNP-9] ... 92
